# test.system: Serine/threonine-protein kinase mTOR (Homo sapiens) (UniProt P42345)
# measurement.description: Inhibition of mTOR in human H460 cells assessed as p70S6 phosphorylation at Thr 389 upto 30 uM
# Format: cell-based
The source made the active and inactive calls. The calls are words filed in the database; no cut-off is given here.
measurement.label: Activity

mol: COc1ccc2c(Oc3cccc([N+](=O)[O-])c3)c3ccoc3nc2c1
Activity: inactive
--
mol: COc1cc2nc3occc3c(Oc3cccnc3)c2cc1OC
Activity: inactive
--
mol: COc1ccc2c(-n3ccnc3)c3ccoc3nc2c1
Activity: inactive
--
mol: O=[N+]([O-])c1cn(-c2c3cc4c(cc3nc3occc23)OCO4)cn1
Activity: inactive
--
mol: COc1ccc2c(OC)c3ccoc3nc2c1
Activity: inactive

Recorded result, `COc1ccc2c(Sc3ccc(C#N)cc3)c3ccoc3nc2c1` , Activity: inactive

* * *

# test.system: Phosphatidylinositol 4,5-bisphosphate 3-kinase catalytic subunit alpha isoform (Homo sapiens, UniProt P42336)
# Sequence (P42336 whole entry, canonical isoform): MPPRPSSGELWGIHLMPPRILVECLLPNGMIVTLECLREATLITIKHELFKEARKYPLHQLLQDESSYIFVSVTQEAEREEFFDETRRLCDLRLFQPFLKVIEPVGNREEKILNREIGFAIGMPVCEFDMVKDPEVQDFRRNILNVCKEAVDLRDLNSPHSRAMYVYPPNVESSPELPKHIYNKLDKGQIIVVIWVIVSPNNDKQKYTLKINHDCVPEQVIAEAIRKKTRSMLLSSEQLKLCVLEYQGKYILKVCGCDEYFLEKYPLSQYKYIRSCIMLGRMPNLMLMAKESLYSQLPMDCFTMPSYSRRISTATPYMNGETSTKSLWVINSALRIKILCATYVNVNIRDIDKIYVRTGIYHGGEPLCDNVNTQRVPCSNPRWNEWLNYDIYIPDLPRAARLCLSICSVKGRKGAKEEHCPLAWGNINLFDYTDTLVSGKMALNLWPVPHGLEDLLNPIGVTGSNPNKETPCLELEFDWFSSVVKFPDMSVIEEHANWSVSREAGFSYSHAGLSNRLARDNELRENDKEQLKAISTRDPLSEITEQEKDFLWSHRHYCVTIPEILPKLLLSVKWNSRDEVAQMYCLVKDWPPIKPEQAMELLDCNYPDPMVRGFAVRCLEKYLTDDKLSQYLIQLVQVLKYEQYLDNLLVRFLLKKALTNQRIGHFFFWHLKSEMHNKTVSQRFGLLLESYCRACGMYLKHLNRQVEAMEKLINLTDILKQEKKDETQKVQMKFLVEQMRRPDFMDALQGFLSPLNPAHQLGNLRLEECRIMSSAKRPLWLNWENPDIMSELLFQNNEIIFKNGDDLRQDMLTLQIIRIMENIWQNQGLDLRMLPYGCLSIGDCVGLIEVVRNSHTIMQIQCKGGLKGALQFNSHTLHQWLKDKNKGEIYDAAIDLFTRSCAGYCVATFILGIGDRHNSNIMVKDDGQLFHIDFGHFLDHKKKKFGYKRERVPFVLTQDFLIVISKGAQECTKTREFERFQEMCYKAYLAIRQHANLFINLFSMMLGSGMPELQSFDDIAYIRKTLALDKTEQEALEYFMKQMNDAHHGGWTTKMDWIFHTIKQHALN
# measurement.description: Inhibition of human recombinant PI3K-alpha assessed as formation of PI3P from PI by cell free kinase assay
measurement.label: pIC50
Please note pIC50 is a logarithmic value: minus log10 of concentration in mol/L. Answer with that number alone.

Recorded result, `COc1ccc2c(Sc3ccc([N+](=O)[O-])cc3)c3ccoc3nc2c1` , pIC50: 5.40

* * *

# Tested on: H460
# measurement.description: Inhibition of PI3K in human H460 cells assessed as Akt phosphorylation at Ser 473 at 10 uM
# Type: cell-based
Each record here notes measured inhibition.
Field: numeric (%). Do not append units.

mol: Fc1ccc(Oc2c3cc4c(cc3nc3occc23)OCO4)cc1
test.value: 45
//
mol: COc1ccc2c(-n3ccnc3)c3ccoc3nc2c1
test.value: 64
//
mol: COc1cc2nc3occc3c(-n3cnc([N+](=O)[O-])c3)c2cc1OC
test.value: 58

Recorded result, `COc1ccc2c(Oc3cccc([N+](=O)[O-])c3)c3ccoc3nc2c1` , inhibition: 43

Recorded result, `N#Cc1ccc(Oc2c3cc4c(cc3nc3occc23)OCO4)cc1` , inhibition: 58

Recorded result, `O=[N+]([O-])c1cn(-c2c3cc4c(cc3nc3occc23)OCO4)cn1` , inhibition: 57

Recorded result, `COc1ccc2c(Oc3cccnc3)c3ccoc3nc2c1` , inhibition: 67

Recorded result, `COc1ccc2c(Sc3ccc([N+](=O)[O-])cc3)c3ccoc3nc2c1` , inhibition: 48

* * *

# System: H460
# measurement.description: Inhibition of PI3K in human H460 cells assessed as Akt phosphorylation at Ser 473 at 10 uM
# Assay type: cell-based
Each record here notes measured inhibition.
Field: numeric (%). Do not append units.

Recorded result, `COc1ccc2c(N3CCN(C(C)=O)CC3)c3ccoc3nc2c1` , inhibition: 58

Recorded result, `COc1cc2nc3occc3c(-n3ccnc3)c2cc1OC` , inhibition: 64

Recorded result, `COc1cc2nc3occc3c(Oc3cccnc3)c2cc1OC` , inhibition: 43

Recorded result, `c1cn(-c2c3cc4c(cc3nc3occc23)OCO4)cn1` , inhibition: 40
